# SYSTEM: KCC4 (Homo sapiens)
# Sequence (Q9Y666 whole entry): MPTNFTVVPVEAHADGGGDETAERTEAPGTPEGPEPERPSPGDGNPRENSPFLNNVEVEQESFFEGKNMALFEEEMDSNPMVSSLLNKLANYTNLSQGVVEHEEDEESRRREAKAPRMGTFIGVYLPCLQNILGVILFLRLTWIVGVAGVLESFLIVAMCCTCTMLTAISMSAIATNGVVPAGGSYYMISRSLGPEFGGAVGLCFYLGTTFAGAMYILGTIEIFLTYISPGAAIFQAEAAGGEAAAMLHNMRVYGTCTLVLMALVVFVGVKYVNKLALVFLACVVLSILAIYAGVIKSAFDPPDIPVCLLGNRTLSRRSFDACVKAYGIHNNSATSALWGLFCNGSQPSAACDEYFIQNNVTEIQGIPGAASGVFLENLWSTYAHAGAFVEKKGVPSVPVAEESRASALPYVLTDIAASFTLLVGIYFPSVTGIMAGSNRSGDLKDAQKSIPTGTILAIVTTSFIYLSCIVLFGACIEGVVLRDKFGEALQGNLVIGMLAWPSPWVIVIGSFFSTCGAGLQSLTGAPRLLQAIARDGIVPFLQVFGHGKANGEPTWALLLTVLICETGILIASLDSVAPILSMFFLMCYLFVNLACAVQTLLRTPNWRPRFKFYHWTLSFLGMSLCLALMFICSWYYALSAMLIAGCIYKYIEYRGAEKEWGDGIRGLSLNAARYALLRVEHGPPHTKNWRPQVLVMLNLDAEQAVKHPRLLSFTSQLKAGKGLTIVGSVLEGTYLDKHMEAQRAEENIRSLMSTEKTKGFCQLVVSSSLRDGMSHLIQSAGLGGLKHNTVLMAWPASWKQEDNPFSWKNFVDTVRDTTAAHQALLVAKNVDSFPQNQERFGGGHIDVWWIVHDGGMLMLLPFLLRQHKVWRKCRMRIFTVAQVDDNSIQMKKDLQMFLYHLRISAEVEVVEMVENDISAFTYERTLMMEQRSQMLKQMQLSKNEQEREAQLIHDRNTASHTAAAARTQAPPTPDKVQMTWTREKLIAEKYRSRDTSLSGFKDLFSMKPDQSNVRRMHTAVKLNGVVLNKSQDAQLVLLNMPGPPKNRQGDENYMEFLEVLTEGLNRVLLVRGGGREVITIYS
# EXPERIMENT_SUMMARY: Tl+ flux assay, HEK-293 cells expressing KCC4
# TEST_CONDITIONS: read-out: concentration at which effects on KCC4 were seen (EC50, FIG. 1G)
OBSERVED_PROPERTY: EC50

## Task Consider the molecule C[C@@H]1CN(c2nc3c(c(Nc4ccc(C5CCCCC5)cc4)n2)COC3)CCO1 [Compound A] . State its measured EC50.
## Result > 100 µM
